test_system: PCP
assay_explanation: radioligand binding assay
Design: species or system human
parameter_measured: pIC50
Numbers only, as −log10 of the molar value.

Incoming: Let me know recorded pIC50 for C[C@]12N[C@H](Cc3ccccc31)c1ccccc12 [MK 801, reference compound] , thanks.
Outgoing: 8.33

* * *

test_system: 5-HT2B (Homo sapiens)
parameter_measured: Ki

Incoming: Let me know recorded Ki for COc1cc(CC(C)N)c(OC)cc1I (racemic) [(±)DOI, reference compound] , thanks.
Outgoing: 7 nM

* * *

test_system: 5-HT2B (Homo sapiens, UniProt P41595)
Sequence (P41595 whole entry): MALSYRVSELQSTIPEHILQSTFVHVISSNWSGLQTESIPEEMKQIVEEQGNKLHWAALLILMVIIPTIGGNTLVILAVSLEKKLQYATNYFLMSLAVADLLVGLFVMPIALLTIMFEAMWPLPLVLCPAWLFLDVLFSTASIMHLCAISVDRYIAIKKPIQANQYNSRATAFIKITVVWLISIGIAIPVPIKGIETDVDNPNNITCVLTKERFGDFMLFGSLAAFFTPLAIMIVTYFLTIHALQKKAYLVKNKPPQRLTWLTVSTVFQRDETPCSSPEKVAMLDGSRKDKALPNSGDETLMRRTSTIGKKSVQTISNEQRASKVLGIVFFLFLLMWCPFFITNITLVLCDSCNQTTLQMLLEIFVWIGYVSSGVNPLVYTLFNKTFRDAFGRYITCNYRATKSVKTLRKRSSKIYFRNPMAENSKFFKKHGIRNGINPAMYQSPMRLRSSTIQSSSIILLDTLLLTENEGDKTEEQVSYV
parameter_measured: pIC50
Give bare numbers, as −log10 of the molar value.

Incoming: Let me know recorded pIC50 for COc1cc(CC(C)N)c(OC)cc1I (racemic) [(±)DOI, reference compound] , thanks.
Outgoing: 7.85
